- Test system: SF-268
- ASSAY_PROTOCOL: NCI tumour cell line growth inhibition, 48 h
Calls of active or inactive are those of the source. Cut-off read from the data, not from the text of the source: active = GI50 up to about 1.1 µM and inactive = higher.
MEASUREMENT_LABEL: GI50

Known GI50 results, listed for orientation:
Cc1[nH]c2ncn3nc(C(Cl)(Cl)Cl)nc3c2c1Cc1ccccc1    > 100 µM (inactive)
Nc1nc2c(ncn2CC2CCC(CO)C2)c(=O)[nH]1 (configuration not stated)    > 100 µM (inactive)
CNC(=O)N(C)/N=N/CCCl    > 100 µM (inactive)
CC(=O)O[C@H]1CCn2c3c(c(C)c21)C(=O)C(N1CC1)=C(C)C3=O    > 10 µM (inactive)
COc1ccc(OC)c2c1CC(C(=O)O)(C(=O)O)CC2=O    > 100 µM (inactive)
Cc1ccc(-c2nc(C)c(C(=O)Nc3ccc(Cl)cc3)s2)cc1    26.5 µM (inactive)
CC(C)(C)/C(O)=C\c1nc2cc(C(F)(F)F)ccc2[nH]c1=O    > 100 µM (inactive)
CC(/C=C/c1ncccc1OCCCCCC(=O)O)=N\NC1=NCCN1    > 100 µM (inactive)

Any idea what its GI50 is? The compound is `C=Cc1ccc(C)[n+](C[Si](C)(C)O[Si](C)(C)C)c1`
> 100 µM (inactive)

Would you kindly repeat that for `CCCCCCN(CCCCCC)C1=CC(=O)C(=O)c2ccccc21` ?
18.7 µM (inactive)

Would you kindly repeat that for CC1(O)C=CC2CCC1C2O (configuration not stated) ?
29.3 µM (inactive)

Would you kindly repeat that for O=C1CC(n2cccc2)c2c(Br)sc(Br)c21 (configuration not stated) ?
14.8 µM (inactive)
